In this section, each of the sequences is paired with its reported phosphorylation enrichment.
# MEASUREMENT_TARGET: MERTK (UniProt Q12866)
# Sequence (Q12866 whole entry, looked up): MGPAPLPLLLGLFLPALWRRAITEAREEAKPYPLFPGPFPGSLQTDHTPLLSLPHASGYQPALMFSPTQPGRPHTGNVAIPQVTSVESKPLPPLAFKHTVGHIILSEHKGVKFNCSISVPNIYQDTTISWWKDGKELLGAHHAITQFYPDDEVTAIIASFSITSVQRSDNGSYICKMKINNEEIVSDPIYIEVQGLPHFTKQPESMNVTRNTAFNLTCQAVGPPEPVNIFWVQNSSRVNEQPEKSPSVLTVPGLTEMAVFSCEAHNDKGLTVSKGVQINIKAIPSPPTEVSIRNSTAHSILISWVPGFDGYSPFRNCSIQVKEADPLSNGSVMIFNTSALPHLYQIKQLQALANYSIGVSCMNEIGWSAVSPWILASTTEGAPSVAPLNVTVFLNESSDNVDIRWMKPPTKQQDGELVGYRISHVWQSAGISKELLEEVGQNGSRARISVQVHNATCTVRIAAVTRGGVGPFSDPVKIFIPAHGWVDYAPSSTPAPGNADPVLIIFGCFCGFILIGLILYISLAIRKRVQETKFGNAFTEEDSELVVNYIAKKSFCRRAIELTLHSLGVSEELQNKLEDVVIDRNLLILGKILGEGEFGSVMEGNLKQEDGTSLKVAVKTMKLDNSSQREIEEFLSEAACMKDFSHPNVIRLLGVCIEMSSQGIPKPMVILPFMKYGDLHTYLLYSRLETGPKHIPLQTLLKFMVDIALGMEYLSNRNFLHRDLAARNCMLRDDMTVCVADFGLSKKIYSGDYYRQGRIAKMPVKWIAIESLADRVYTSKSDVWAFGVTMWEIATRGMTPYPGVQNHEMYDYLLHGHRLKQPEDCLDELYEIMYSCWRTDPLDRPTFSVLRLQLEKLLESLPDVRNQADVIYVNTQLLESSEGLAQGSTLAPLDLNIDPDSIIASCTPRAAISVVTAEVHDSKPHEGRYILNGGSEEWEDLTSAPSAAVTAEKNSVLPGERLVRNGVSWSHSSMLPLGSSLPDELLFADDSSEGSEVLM
# EXPERIMENT: phosphorylation enrichment, bacterial display (enrichment ratio); higher = better substrate or ligand; peptides without Tyr show the background;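 further: 11-residue human phosphosite peptides and single-mutation variants displayed on the E. coli surface, counted by deep sequencing, each peptide's frequency after selection divided by its frequency in the unselected input library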;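 further: frequency after pTyr selection over input frequency; kinase dosed for 20-30% of maximal phosphorylation in three min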
MEASURED_ENDPOINT: phosphorylation enrichment

ENTRY_SEQUENCE	MEASURED_ENDPOINT	VALUE_OBSERVED
TWQSMYGCDVG [HLA-B_Y123_L119W]	phosphorylation enrichment	0.6
MSRDVYSTDFF [NTRK2_Y702_YF]	phosphorylation enrichment	5.05
SKKVRYVVSKA [BARD1_Y156]	phosphorylation enrichment	0.312
HGEAYYSEVKP [PAK5_Y182]	phosphorylation enrichment	11.2
IFHLSYIHNCE [PDE6B_Y227_L228I_YF]	phosphorylation enrichment	0.392
MRNDLYQTPLH [NFKB1_Y582]	phosphorylation enrichment	2.62
VVEDGYEFFAK [PPP1CB_Y254]	phosphorylation enrichment	0.392
PTYENYANSTQ [SLC12A3_Y70_H69N]	phosphorylation enrichment	0.927
KPIETYFSKNY [PLP1_Y50_L46P]	phosphorylation enrichment	0.466
SELVRYDARVH [MET_Y971]	phosphorylation enrichment	0.443
DAVAVYDGKIS [SH2D1A_Y7_H8D]	phosphorylation enrichment	0.498
IITDFYVDMKF [MPP4_Y567_V562I_YF]	phosphorylation enrichment	0.511
RELGEYALAEF [ALDH1A3_Y492_YF]	phosphorylation enrichment	0.478
DPLLTYRFPPN [LMNA_Y481_K486N]	phosphorylation enrichment	0.497
VDEERYDIEGK [TNNI3_Y112_A116G]	phosphorylation enrichment	0.491
GGFTRYCDGKK [PROS1_Y266_C265R_YF]	phosphorylation enrichment	0.403
INNKMYDPKMN [ENPP1_Y280_D276N]	phosphorylation enrichment	0.354
DFPMGYPSYLA [TBCK_Y153_I151M]	phosphorylation enrichment	0.464
AQESNYRLLRQ [SLC20A2_Y377_R382Q]	phosphorylation enrichment	0.488
KMMGRYEMYAR [UPB1_Y362_T359M]	phosphorylation enrichment	0.543
LGGAMYFLEAD [PKHD1_Y452_E457D_YF]	phosphorylation enrichment	0.536
PPNSPYMGSSP [KCNT1_Y740_I741M]	phosphorylation enrichment	0.468
VPFARYLAMNK [HARS1_Y138]	phosphorylation enrichment	0.376
PSPMPYAFCQM [FOXL2_Y215_S217F]	phosphorylation enrichment	1.41
ENKGVYVPMSG [IVD_Y277_L279P]	phosphorylation enrichment	0.451
TQNAVYSAANY [DDX5_Y535_G533A]	phosphorylation enrichment	5.57
KKKKQYKGKFL [CASK_Y708_D710G_YF]	phosphorylation enrichment	0.533
LGLDECLDKLK [FMNL2_Y352_Y352C]	phosphorylation enrichment	1.09
GLQDEYDFKCK [STAT1_Y170_D165G]	phosphorylation enrichment	0.453
KLMTEYKKRKQ [ARFGEF3_Y2029]	phosphorylation enrichment	0.52
ELAKYYKLHHI [AK7_Y391_N389K]	phosphorylation enrichment	0.376
RLRVVYPWTQR [HBB_Y36_L33R]	phosphorylation enrichment	0.819
HMEAVYIDIAD [PITPNA_Y140_V136M]	phosphorylation enrichment	1.43
RNYGTYTAGLS [RHBDD1_Y264_D262G]	phosphorylation enrichment	0.55
STDDGCIDLQF [TMEM230_Y29_Y29C]	phosphorylation enrichment	0.646
ICGVSYDEYRY [CFTR_Y512_F508C]	phosphorylation enrichment	0.463
ENKGVYVLMSG [IVD_Y277]	phosphorylation enrichment	1.13
DTLLEYLENPK [CYCS_Y68_M66L]	phosphorylation enrichment	0.448
LFMGDYVDRGY [PPP2CA_Y86]	phosphorylation enrichment	0.701
SVTCMYSPALN [TP53_Y126_T125M]	phosphorylation enrichment	0.472
QADIIYVNTQL [MERTK_Y872_V870I]	phosphorylation enrichment	0.571
LAVNPYGPPDP	phosphorylation enrichment	0.594
PPVVNYEEDAR [FER_Y402]	phosphorylation enrichment	0.856
CTTIHYNYVCN [TP53_Y234_M237V]	phosphorylation enrichment	0.498
YPPDGYSRHYE [CTNND1_Y213]	phosphorylation enrichment	0.395
VSAPEYGPKLK [TBC1D14_Y46_L41V]	phosphorylation enrichment	0.394
DAAEDYAEGVC [DHODH_Y194_R199C]	phosphorylation enrichment	0.492
LLREWYVQDPY [SIX3_Y225_L226V]	phosphorylation enrichment	0.44
GYDHSYYFIAT [ESD_Y262]	phosphorylation enrichment	4.8
DPHECYAKVFN [ALB_Y394_D399N]	phosphorylation enrichment	0.504
AVLVQYYMEHH [PTPN11_Y80_E76V]	phosphorylation enrichment	0.89
CEHRGSLYLAI [TEK_Y897_Y897S]	phosphorylation enrichment	1.24
TGNGYYFRVFS [MYBPC3_Y1136_I1131T]	phosphorylation enrichment	0.353
LGRKLYSIATP [ABHD12_Y345_A349T]	phosphorylation enrichment	1.29
EEKKKYYDAKI [CASP5_Y103_T106A]	phosphorylation enrichment	0.429
WQQQSYLDYGI [CTNNB1_Y30_S33Y]	phosphorylation enrichment	0.426
NNKKDYFDMFE [SLC26A3_Y526_K521N_YF]	phosphorylation enrichment	0.46
